Data origin: patent US20200199204A1

biological target: HIV-1 Env of REJO.67 (HIV-1); assay: cell-based or functional assay

binder | neutralization IC50
CAP256-VRC26.05 (antibody, V domains shown) VH: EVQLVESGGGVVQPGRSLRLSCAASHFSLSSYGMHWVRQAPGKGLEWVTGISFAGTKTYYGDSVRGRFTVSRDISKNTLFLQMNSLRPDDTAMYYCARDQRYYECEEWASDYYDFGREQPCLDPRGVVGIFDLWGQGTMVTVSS VL: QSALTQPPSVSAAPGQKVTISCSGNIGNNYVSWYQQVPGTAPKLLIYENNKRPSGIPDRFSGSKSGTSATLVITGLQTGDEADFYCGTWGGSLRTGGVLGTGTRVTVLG | > 50 µg/mL
CAP256-VRC26.01 (antibody, V domains shown) VH: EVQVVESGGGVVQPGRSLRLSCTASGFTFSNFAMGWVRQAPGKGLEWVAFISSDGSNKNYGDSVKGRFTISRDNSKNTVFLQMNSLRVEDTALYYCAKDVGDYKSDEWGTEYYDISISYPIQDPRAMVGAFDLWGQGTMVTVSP VL: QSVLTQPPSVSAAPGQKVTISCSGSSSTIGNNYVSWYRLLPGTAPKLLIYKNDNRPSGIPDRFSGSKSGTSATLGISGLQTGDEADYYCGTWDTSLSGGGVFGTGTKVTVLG | > 50 µg/mL
CAP256-VRC26.07 (antibody, V domains shown) VH: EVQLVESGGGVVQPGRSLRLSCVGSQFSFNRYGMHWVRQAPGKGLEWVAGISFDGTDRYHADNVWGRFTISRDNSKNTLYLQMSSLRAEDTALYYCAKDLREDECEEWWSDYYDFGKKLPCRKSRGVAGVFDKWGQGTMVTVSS VL: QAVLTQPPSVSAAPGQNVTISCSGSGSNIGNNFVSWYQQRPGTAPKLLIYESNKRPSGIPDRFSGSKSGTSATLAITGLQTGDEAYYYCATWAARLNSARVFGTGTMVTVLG | > 50 µg/mL
